Measured values drawn from patent US9650395B2 for this set.

- Tested on: Pseudomonas aeruginosa (P. aeruginosa) 27853
- assay_method_text: Antibacterial activity, MIC, P. aeruginosa 27853
- Format: cell-based
- study_conditions: Pseudomonas aeruginosa, P. aeruginosa 27853; read-out: MIC 27853
observed_property: MIC

Retrieve MIC measured for CCc1cc(C(=O)O)c(=O)[nH]c1-c1ccc(N2C[C@@H]3[C@@H](N)[C@@H]3C2)cc1F and print it.
12.5 to 150 µg/mL

Retrieve MIC measured for CCc1c(-c2ccc(N3C[C@H]4CCC[C@@H](N(C)C)[C@H]4C3)cc2)[nH]c(=O)c(C(=O)O)c1O.Cl and print it.
12.5 to 150 µg/mL

Retrieve MIC measured for CCc1cc(C(=O)O)c(=O)[nH]c1-c1ccc(N2C[C@H](CN)[C@@H](C)C2)cc1 and print it.
12.5 to 150 µg/mL

Retrieve MIC measured for Cc1cc(C(=O)O)c(=O)[nH]c1-c1ccc(N(C)C)cc1 and print it.
12.5 to 150 µg/mL

Retrieve MIC measured for CCc1c(-c2ccc(N3CCCC3=O)cc2)[nH]c(=O)c(C(=O)O)c1O and print it.
12.5 to 150 µg/mL

Retrieve MIC measured for CN(C)c1ccc(-c2[nH]c(=O)c(C(=O)O)c(O)c2CCO)cc1 and print it.
12.5 to 150 µg/mL

Retrieve MIC measured for CCc1c(-c2ccc(N(C)C)cc2)[nH]c(=O)c(C(=O)O)c1O and print it.
12.5 to 150 µg/mL

Retrieve MIC measured for CCc1c(-c2ccc(N3CC[C@@H](O)C3)cc2F)[nH]c(=O)c(C(=O)O)c1O and print it.
3.5 to 12.5 µg/mL
